Test system: Leishmania infantum
test details: In Vitro evaluation for the percentage of activity towards Leishmania infantum at 12.5 uM Concentration
Assay type: functional
For each of the molecules below, state its Percent inhibition of Leishmania infantum.
Give bare numbers, in %.

>  <molecule>
COc1ccc2nc3cc(Cl)ccc3c(NCCCCN(CCCNc3c4ccc(Cl)cc4nc4ccc(OC)cc34)C(=O)C(C)NC(=O)OC(C)(C)C)c2c1 (centres undefined)

>  <experimental value>
70

$$$$

Batch of 3 molecules: report Percent inhibition of Leishmania infantum for each.
1. COc1ccc2nc3cc(Cl)ccc3c(NCCCN(CCCNc3c4ccc(Cl)cc4nc4ccc(OC)cc34)C(=O)CCC(=O)O)c2c1
2. COc1ccc2nc3cc(Cl)ccc3c(NCCCN(CCCNc3c4ccc(Cl)cc4nc4ccc(OC)cc34)C(=O)C(C)N)c2c1 (centres undefined)
3. COc1ccc2nc3cc(Cl)ccc3c(NCCCN(CCCNc3c4ccc(Cl)cc4nc4ccc(OC)cc34)C(=O)C(CC(=O)OCC3c4ccccc4-c4ccccc43)NC(=O)OC(C)(C)C)c2c1 (centres undefined)

Reply:
0
0
20
